As a worked illustration, we turn to pKd data collected for CAVI (Homo sapiens, UniProt P23280).
API: returns pKd as number; meaning -log10 of concentration in mol/L.

Entry NS(=O)(=O)c1ccc(NCC(CC(=O)NN=Cc2ccc(C(=O)O)cc2)C(=O)NN=Cc2ccc(C(=O)O)cc2)cc1 (stereo not shown) [Compound 18a] has what pKd?
4.48

Please give the result for Cc1csc(N(CCC(=O)O)c2ccc(S(N)(=O)=O)cc2)n1 [Compound 27] too.
4.74

Please give the result for Cc1ccc(C)n1NC(=O)CC(CNc1ccc(S(N)(=O)=O)cc1Cl)C(=O)Nn1c(C)ccc1C (stereo not shown) [Compound 19b] too.
5.30

Please give the result for NS(=O)(=O)c1ccc(N(CCC(=O)O)c2nc(-c3ccc(Cl)cc3)c(Cl)s2)cc1 [Compound 36] too.
5.20

Please give the result for CNC(=S)NNC(=O)CC(CNc1ccc(S(N)(=O)=O)cc1)C(=O)NNC(=S)NC (stereo not shown) [Compound 22a] too.
4.89

Please give the result for CNC(=S)NNC(=O)CC(CNc1ccc(S(N)(=O)=O)cc1Cl)C(=O)NNC(=S)NC (stereo not shown) [Compound 22b] too.
5.48

Please give the result for CCOC(=O)c1sc(N(CCC(=O)OC)c2ccc(S(N)(=O)=O)cc2)nc1C [Compound 32] too.
5.00

Please give the result for CCOC(=O)c1sc(N(CCC(=O)NN)c2ccc(S(N)(=O)=O)cc2)nc1C [Compound 33] too.
4.60

Please give the result for Cc1csc(N(CCC(=O)NN)c2ccc(S(N)(=O)=O)cc2)n1 [Compound 29] too.
4.70

Please give the result for NS(=O)(=O)c1ccc(NCC(CC(=O)NN=Cc2ccc(C(=O)O)cc2)C(=O)NN=Cc2ccc(C(=O)O)cc2)c(Cl)c1 (stereo not shown) [Compound 18b] too.
4.70
